Biological target: Rho-associated protein kinase 1 (Homo sapiens) (UniProt Q13464)
Sequence (Q13464 2-1354 limits assumed): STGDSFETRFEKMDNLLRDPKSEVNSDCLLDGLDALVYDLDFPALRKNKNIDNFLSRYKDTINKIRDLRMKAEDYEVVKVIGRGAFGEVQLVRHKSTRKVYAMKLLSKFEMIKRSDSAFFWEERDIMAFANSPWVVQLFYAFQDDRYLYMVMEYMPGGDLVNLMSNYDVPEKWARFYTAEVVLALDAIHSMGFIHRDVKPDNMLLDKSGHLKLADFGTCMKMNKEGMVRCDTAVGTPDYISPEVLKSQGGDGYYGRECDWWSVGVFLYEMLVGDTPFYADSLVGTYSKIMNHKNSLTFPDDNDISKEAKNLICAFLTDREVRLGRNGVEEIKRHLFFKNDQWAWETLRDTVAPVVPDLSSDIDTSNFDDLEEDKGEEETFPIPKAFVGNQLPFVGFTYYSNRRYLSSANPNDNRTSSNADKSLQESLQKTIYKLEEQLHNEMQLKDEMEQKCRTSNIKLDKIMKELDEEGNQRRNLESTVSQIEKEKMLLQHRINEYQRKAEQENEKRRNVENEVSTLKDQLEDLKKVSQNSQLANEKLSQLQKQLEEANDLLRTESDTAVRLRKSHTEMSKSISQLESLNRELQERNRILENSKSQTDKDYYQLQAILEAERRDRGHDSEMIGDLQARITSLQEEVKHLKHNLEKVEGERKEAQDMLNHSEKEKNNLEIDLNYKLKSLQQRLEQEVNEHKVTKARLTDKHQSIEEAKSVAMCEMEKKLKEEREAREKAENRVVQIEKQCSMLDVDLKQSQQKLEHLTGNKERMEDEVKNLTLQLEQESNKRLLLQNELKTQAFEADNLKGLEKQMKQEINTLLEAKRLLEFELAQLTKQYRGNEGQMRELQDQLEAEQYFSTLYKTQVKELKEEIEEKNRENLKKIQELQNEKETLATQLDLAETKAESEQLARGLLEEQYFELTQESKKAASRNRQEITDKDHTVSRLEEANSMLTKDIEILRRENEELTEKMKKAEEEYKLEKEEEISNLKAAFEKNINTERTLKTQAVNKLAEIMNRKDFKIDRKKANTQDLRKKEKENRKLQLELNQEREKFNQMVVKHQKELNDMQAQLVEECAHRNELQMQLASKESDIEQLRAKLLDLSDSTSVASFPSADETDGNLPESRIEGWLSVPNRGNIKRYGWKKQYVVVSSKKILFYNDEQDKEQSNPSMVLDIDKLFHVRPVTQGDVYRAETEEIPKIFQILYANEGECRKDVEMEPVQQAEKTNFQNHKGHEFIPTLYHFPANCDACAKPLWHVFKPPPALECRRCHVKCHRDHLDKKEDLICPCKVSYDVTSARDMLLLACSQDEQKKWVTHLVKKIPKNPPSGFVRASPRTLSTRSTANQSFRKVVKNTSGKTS
Test: Inhibition of ROCK1 (unknown origin) assessed as residual activity at 10 uM relative to control
Listing: Activity of selected molecules
A number alone suffices; assume %.

                               query_smiles  result_units  observed_result
0  COc1cc(-c2cc(=O)c3cc(Cl)cc(Cl)c3o2)ccc1O             %              120
1  COc1cc(-c2cc(=O)c3cc(Br)cc(Br)c3o2)ccc1O             %               89
2   COc1cc(-c2cc(=O)c3cc(Cl)cc(C)c3o2)ccc1O             %              113

// below: Activity requested for another molecule
response.value for "COc1cc(-c2cc(=O)c3cc(Br)cc(Br)c3o2)cc(Cl)c1O" (field: Activity) = 121
